Each item that follows carries a reported self-splicing fitness (ln).
protocol_details: self-splicing fitness, log relative to wild type (ln ratio); higher = more splicing; Tetrahymena group I intron in knt gene, E. coli kanamycin selection, DiMSum; sequences stand for … in CUCUCU…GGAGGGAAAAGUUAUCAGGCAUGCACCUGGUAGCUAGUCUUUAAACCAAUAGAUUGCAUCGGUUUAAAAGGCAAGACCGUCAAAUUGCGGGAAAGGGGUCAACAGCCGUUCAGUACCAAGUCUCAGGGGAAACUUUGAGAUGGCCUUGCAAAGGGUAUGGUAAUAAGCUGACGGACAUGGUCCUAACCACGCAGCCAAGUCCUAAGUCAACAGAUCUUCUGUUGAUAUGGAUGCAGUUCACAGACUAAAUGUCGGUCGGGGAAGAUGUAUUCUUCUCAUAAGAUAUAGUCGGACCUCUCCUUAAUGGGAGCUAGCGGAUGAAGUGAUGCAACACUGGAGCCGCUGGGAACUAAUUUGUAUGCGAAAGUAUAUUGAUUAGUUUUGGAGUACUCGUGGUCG;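 further: selection with 25 µg/mL kanamycin versus none on LB agar overnight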
run_conditions: 37 °C
Just the number, please.

construct_sequence | self-splicing fitness (ln)
UAUUAGCAAUAUUACGAUAC | -1.13

Input: Output self-splicing fitness (ln) of CAUUAGCAAUAUUACGCACA
Output: -0.408

Input: Output self-splicing fitness (ln) of CAUUAGCAAUAUUACGGGUG
Output: -1.57

Input: Output self-splicing fitness (ln) of GGCAAGCAAUAUUACGCACG
Output: 0.171

Input: Output self-splicing fitness (ln) of UGGUAGCAAUAUUACGCCGA
Output: -0.492

Data origin: the supplement of paper PMC7877785
